Values compiled from patent US20240109917A1.

Reported IC50 for target or system His6-TEV-PDGFRβ (557-1016) (Homo sapiens (Human)), by entry.
Record the result as number plus unit.

smiles_representation=COc1ncccc1-c1cn2ncc(C(=O)Nc3cc(NC(=O)CN4CCOCC45CCC5)cnc3C)c2s1 system_name="His6-TEV-PDGFRβ (557-1016) (Homo sapiens (Human))" measurement_type=IC50 result="0.3 nM"
smiles_representation=Cc1ncc(C(=O)NCCN2CCCC2(C)C)cc1NC(=O)c1cnn2cc(-c3c(C)n[nH]c3C)sc12 system_name="His6-TEV-PDGFRβ (557-1016) (Homo sapiens (Human))" measurement_type=IC50 result="0.4 nM"
smiles_representation=Cc1ncc(NC(=O)CN2CCCC2(C)C)cc1NC(=O)c1cnn2cc(-c3cnn4c3COCC4)sc12 system_name="His6-TEV-PDGFRβ (557-1016) (Homo sapiens (Human))" measurement_type=IC50 result="0.3 nM"
smiles_representation=Cc1ncc(NC(=O)CN2CCCC2(C)C)cc1NC(=O)c1cnn2cc(-c3cn(C)nc3C)sc12 system_name="His6-TEV-PDGFRβ (557-1016) (Homo sapiens (Human))" measurement_type=IC50 result="0.2 nM"
smiles_representation=Cc1ncc(C(=O)NC2CN(C(C)(C)C)C2)cc1NC(=O)c1cnn2cc(-c3cnn(C)c3)sc12 system_name="His6-TEV-PDGFRβ (557-1016) (Homo sapiens (Human))" measurement_type=IC50 result="1.4 nM"
smiles_representation=Cc1ncc(C(=O)NCCN2CC3CCC2CC3)cc1NC(=O)c1cnn2cc(-c3cnn(C)c3)sc12 system_name="His6-TEV-PDGFRβ (557-1016) (Homo sapiens (Human))" measurement_type=IC50 result="0.2 nM"

We now examine a further compound.
# query: IC50 | item `Cc1cc(C(=O)NCCN2CCCC2(C)C)sc1NC(=O)c1cnn2cc(-c3cnn(C)c3)sc12` | system: His6-TEV-PDGFRβ (557-1016) (Homo sapiens (Human))
24.1 nM

====

# IC50 values compiled below
- system-name: His6-TEV-PDGFRβ (557-1016) (Homo sapiens (Human))
- Sequence (P09619 557-1016): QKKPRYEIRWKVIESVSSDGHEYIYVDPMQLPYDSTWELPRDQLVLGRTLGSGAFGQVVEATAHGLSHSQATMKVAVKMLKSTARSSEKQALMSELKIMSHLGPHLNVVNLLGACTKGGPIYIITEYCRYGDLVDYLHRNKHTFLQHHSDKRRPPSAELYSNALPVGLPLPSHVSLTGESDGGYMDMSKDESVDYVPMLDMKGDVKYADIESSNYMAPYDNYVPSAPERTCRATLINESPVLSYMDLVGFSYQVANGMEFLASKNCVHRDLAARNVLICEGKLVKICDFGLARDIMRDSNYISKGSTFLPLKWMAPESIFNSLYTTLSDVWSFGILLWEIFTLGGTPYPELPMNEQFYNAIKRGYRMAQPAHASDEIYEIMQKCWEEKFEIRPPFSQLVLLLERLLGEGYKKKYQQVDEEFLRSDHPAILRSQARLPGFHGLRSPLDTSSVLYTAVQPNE
- test-name: PDGFRβ HTRF Assay
- Type: biochemical
- details: read-out: PDGFR HTRF IC50
Numbers only; they are read as nM.

Solved entries:
compound="Cc1ncc(C(=O)NCCN2CCCC2)cc1NC(=O)c1cnn2cc(-c3cnn(CC(O)CO)c3)sc12 (stereo not drawn)" measurement_units=nM quantitative_result=0.6
compound=Cc1cc(C(=O)NCCN2CCCC2(C)C)sc1NC(=O)c1cnn2cc(-c3cnn(C)n3)sc12 measurement_units=nM quantitative_result=41.4
compound="COCCn1cc(-c2cn3ncc(C(=O)Nc4cc(NC(=O)CCC5CCCN5C)cnc4C)c3s2)cn1 (stereo not drawn)" measurement_units=nM quantitative_result=0.7
compound=Cc1ncc(C(=O)NCCN2CCCC2(C)C)cc1NC(=O)c1cnn2cc(-c3cnn4c3OCCC4)sc12 measurement_units=nM quantitative_result=0.3
compound=Cc1ncc(NC(=O)CN2CC(C)(C)C2)cc1NC(=O)c1cnn2cc(-c3cc[nH]c3)sc12 measurement_units=nM quantitative_result=0.1
compound=Cc1ncc(C(=O)NCCN2CCCC2(C)C)cc1NC(=O)c1cnn2cc(-c3cnn(Cc4cc(O)no4)c3)sc12 measurement_units=nM quantitative_result=1.3

Okay, next one:
// returns reported IC50 for input `Cc1ncc(C(=O)NCCN2CC(C)(C)C2)cc1NC(=O)c1cnn2cc(-c3cccnc3)sc12`
0.9

====

- system-name: UniProt:Q05030
- Sequence (Q05030 32-1097): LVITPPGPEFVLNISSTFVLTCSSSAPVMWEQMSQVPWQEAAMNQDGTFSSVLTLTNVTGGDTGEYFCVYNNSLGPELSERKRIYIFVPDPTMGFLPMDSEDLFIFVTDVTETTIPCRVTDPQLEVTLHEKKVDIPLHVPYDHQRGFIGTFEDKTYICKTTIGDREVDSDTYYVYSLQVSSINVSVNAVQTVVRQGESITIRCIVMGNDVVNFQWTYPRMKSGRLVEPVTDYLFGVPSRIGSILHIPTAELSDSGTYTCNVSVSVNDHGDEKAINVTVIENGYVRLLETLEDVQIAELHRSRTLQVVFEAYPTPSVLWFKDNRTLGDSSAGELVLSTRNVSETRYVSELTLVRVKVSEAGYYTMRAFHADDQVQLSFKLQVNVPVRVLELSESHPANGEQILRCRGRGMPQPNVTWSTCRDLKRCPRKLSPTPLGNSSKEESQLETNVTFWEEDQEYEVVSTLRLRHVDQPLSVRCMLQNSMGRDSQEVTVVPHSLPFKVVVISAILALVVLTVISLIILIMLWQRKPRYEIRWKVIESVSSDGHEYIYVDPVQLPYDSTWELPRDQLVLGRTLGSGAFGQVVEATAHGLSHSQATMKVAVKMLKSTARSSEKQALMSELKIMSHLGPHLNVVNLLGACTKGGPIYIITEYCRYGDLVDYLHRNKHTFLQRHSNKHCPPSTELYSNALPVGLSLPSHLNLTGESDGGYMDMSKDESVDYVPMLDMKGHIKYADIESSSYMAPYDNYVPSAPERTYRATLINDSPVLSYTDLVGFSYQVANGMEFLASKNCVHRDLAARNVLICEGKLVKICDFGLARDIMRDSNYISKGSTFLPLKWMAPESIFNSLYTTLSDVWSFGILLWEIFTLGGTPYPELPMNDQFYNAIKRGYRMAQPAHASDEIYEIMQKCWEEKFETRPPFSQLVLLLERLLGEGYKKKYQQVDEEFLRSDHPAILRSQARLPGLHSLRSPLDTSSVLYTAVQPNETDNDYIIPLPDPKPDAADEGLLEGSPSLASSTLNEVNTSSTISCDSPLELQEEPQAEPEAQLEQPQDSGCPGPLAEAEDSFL
- test-name: PDGFRβ Cellular Assay (PDGFRb P-Y751 HTRF in A10 cells stimulated with PDGF-BB)
- Format: cell-based
- details: read-out: PDGFR Cellular IC50
pIC50: −log10 of the molar value.
If the reported pIC50 equals or exceeds 8, assign MET. If not, assign NOT MET.

compound="COCCn1cc(-c2cn3ncc(C(=O)Nc4cc(NC(=O)CN5CCCC56CCC6)cnc4C)c3s2)cn1 [Example 332]" system_name=UniProt:Q05030 label_value=MET
compound="Cc1ncc(NC(=O)CN2CC(C)(C)C2)cc1NC(=O)c1cnn2cc(-c3cn(C)nc3C)sc12 [Example 430]" system_name=UniProt:Q05030 label_value=MET
compound="Cc1ncc(NC(=O)CN(C)C2CCOCC2)cc1NC(=O)c1cnn2cc(-c3cnn(CC(N)=O)c3)sc12 [Example 300]" system_name=UniProt:Q05030 label_value="NOT MET"
compound="Cc1ncc(C(=O)NCCN2CCCC2(C)C)cc1NC(=O)c1cnn2cc(-c3c(C)n[nH]c3C)sc12 [Example 231]" system_name=UniProt:Q05030 label_value="NOT MET"
compound="Cc1ncc(NC(=O)OC2CN(C(C)(C)C)C2)cc1NC(=O)c1cnn2cc(-c3cnn(C)c3)sc12 [Example 252]" system_name=UniProt:Q05030 label_value="NOT MET"
compound="Cc1ncc(C(=O)NCCN2CC3CCC2CC3)cc1NC(=O)c1cnn2cc(-c3ccc4oc(=O)[nH]c4c3)sc12 [Example 145]" system_name=UniProt:Q05030 label_value="NOT MET"
compound="Cc1ncc(C(=O)NCCN2CCCC2)cc1NC(=O)c1cnn2cc(-c3cn(C)nc3C)sc12 [Example 218]" system_name=UniProt:Q05030 label_value="NOT MET"
compound="Cc1ncc(NC(=O)CN2CC(C)(C)C2)cc1NC(=O)c1cnn2cc(-c3cnn(CCO)c3)sc12 [Example 290]" system_name=UniProt:Q05030 label_value="NOT MET"

Answer whether pIC50 of Cc1ncc(C(=O)NCCN2CCC3(CC3)C2)cc1NC(=O)c1cnn2cc(-c3cnn(C)c3)sc12 [Example 118] is greater than or equal to 8.
NOT MET

Would you say Cc1ncc(NC(=O)CN(C)C2CCOCC2)cc1NC(=O)c1cnn2cc(-c3cnn(C(C)C#N)c3)sc12 (centres unmarked) [Example 297] shows pIC50 at minimum 8?
NOT MET

Is reported pIC50 greater than or equal to 8 here: Cc1ncc(NC(=O)CN2CC(C)(C)C2)cc1NC(=O)c1cnn2cc(-c3cccc4c3cnn4C)sc12 [Example 286]
MET

Dear colleague, could you confirm whether COc1ncccc1-c1cn2ncc(C(=O)Nc3cc(C(=O)NCCN4CCCC4(C)C)cnc3C)c2s1 [Example 226] has pIC50 at or above 8?
MET

For this compound, is measured pIC50 8 or higher? Cc1ncc(NC(=O)CN2CCc3cnccc3C2)cc1NC(=O)c1cnn2cc(-c3cnn(C)c3)sc12 [Example 62]
NOT MET

Is it the case that Cc1ncc(NC(=O)CN2CCC(C)C2)cc1NC(=O)c1cnn2cc(-c3cn(C)nc3C)sc12 (centres unmarked) [Example 446] has pIC50 reaching or exceeding 8?
MET

Reported pIC50 reaches at least 8 for Cc1ncc(NC(=O)CN2Cc3ncsc3C2)cc1NC(=O)c1cnn2cc(-c3cnn(C)c3)sc12 [Example 76] ?
NOT MET

I'd appreciate it if you could say whether Cc1ncc(NC(=O)NCCC2CCN(C)CC2)cc1NC(=O)c1cnn2cc(-c3cnn(C)c3)sc12 [Example 108] has pIC50 at least equal to 8.
NOT MET

Please check the record COc1ncccc1-c1cn2ncc(C(=O)Nc3cc(NC(=O)CN4CCCC5(CC5)C4)cnc3C)c2s1 [Example 321] and state if its pIC50 is at or above 8.
MET

Given Cc1ncc(NC(=O)CN2CCCC23CC3)cc1NC(=O)c1cnn2cc(-c3cnn(CCO)c3)sc12 [Example 87] , state whether its pIC50 is at least 8.
MET

Answer whether pIC50 of Cc1cc(C(=O)NCCN(C)C2CCOCC2)sc1NC(=O)c1cnn2cc(-c3cnn(C)c3)sc12 [Example 192] is greater than or equal to 8.
NOT MET

Hello, I need to know if Cc1cc(C(=O)NCCN2CCC(CO)CC2)sc1NC(=O)c1cnn2cc(-c3cnn(C)c3)sc12 [Example 193] has measured pIC50 not below 8. Thanks!
NOT MET

Does the compound CC(=O)N1CCN(CCNC(=O)c2cnc(C)c(NC(=O)c3cnn4cc(-c5cnn(C)c5)sc34)c2)CC1 [Example 129] have recorded pIC50 that is 8 or more?
NOT MET

Has Cc1ncc(C(=O)NCCN2CC(C)(C)C2)cc1NC(=O)c1cnn2cc(-c3cnn4c3OCCC4)sc12 [Example 479] a recorded pIC50 greater than or equal to 8?
NOT MET

Check if pIC50 >= 8 (inclusive). Item: Cc1ncc(NC(=O)CN2CC(C)(C)C2)cc1NC(=O)c1cnn2cc(-c3cncnc3)sc12 [Example 429]
NOT MET

Entry Cc1ncc(NC(=O)CN2CCC[C@H]2C)cc1NC(=O)c1cnn2cc(-c3nn(C)nc3C)sc12 [Example 443] : is its pIC50 no less than 8?
MET
